- ASSAY PROCEDURE: DNDI: Lipophilicity measured in Chromatographic hydrophobicity index (CHI) assay, pH 7.4
- Type: physicochemical
- CONDITION PARAMETERS: buffer
READOUT TYPE: chromatographic logD

Solved entries:
CCCCOc1ccc(-c2nc(CNC3CCCCCC3)co2)cc1
5.34
N=C(NC1CCCCC1)c1ccccc1-c1ccccc1
2.87
CCc1ccc(/C(=N/O)NC2CCCCC2)cc1
4.6
COc1ccccc1/C(=N/O)NC1CCCCC1
3.6
CN(C)CCNc1nc(Oc2cccc3ccccc23)c2sccc2n1
4.85

I. Cc1ccc(Oc2ncccc2/C(=N/O)NC2CCCCC2)cc1
II. COC/C(=N/O)c1ccc(OC)cc1
III. COc1ccc(/C(CNC2CCCCC2)=N/O)cc1
Input: Rank the 3 compounds: largest chromatographic logD first, smallest last. Please list the labels in the order you were asked to rank them.
Output: I, III, II

meta.source: ChEMBL document CHEMBL1857833
